# RUN DESCRIPTION: qHTS of pediatric cancer cell lines to identify multiple opportunities for drug repurposing: Primary screen for MG 63 (6-TG R) cells (AID 1347105); further: nearly all actives have a fitted effect of over 50% in size
# STUDY CONDITIONS: MG 63 (6-TG R) viability, CellTiter-Glo, 48 h; series mostly up to 46 µM
Records with an inconclusive call do not appear. Activity calls are given as the source filed them. The call rests on the fitted dose curve; in most records, active means well fitted cell-killing curve with a large enough effect; inconclusive means small, poorly fitted or top-dose-only effect; inactive means no such curve, though single readings can be large or run the other way.
Hi there, use one of these labels in your reply, thanks! active, inactive

Would you mind telling me which call this test gave CC(=O)NCCC(=O)N[C@@H](CCC(N)=O)C(=O)N[C@@H](CO)C(=O)N[C@@H](CCC(N)=O)C(=O)N[C@@H](CCC(N)=O)C(=O)N[C@H](C(=O)N[C@@H](Cc1ccccc1)C(=O)N[C@]1(C)CCCCCCC=CCCC[C@@](C)(C(=O)N[C@@H](CCC(N)=O)C(=O)N[C@@H](CC(N)=O)C(N)=O)NC(=O)[C@H](CC(C)C)NC(=O)[C@H](CC(C)C)NC(=O)[C@@H](CCCNC(=N)N)NC(=O)[C@H](Cc2c[nH]c3ccccc23)NC(=O)[C@H](CC(C)C)NC(=O)[C@H](CC(N)=O)NC1=O)[C@H](C)O ? inactive

# lookup: test call for CNC1CCC(N(Cc2cccc(-c3ccncc3)c2)C(=O)c2sc3ccccc3c2Cl)CC1 (configuration not stated) active

Can you look up the reported call for CNC(=O)[C@H](CC1=CN=C2C=CCC=C12)NC(=O)[C@@H](CC(=O)NO)CC(C)C for me? active

Query: recorded result category for CCCCCCOC(=O)N=C(N)c1ccc(NCc2nc3cc(C(=O)N(CCC(=O)OCC)c4ccccn4)ccc3n2C)cc1 in this test inactive

What is the recorded call for this compound in the test? CCCCC(F)(F)[C@@]1(O)CC[C@H]2[C@H](CC(=O)[C@@H]2CCCCCCC(=O)O)O1 inactive

Please share the test call associated with Cc1csc(-c2nnc(Nc3ccc(Oc4ncccc4-c4ccnc(N)n4)cc3)c3ccccc23)c1 . inactive

Please share the test call associated with CN1c2ccccc2C(=O)N2CCc3c([nH]c4ccccc34)C21 (configuration not stated) . inactive

---

# RUN DESCRIPTION: Quantitative High-Throughput drug screen in 47 multiple myeloma cell lines against the NCATS MIPE library collection: KMS21BM_JCRB cell viability assay (AID 1918974)
# STUDY CONDITIONS: ATP luminescence, 48 h
Records with an inconclusive call do not appear. The source made the active and inactive calls. Calls follow the shape of the dose curve; as a rule, active = well fitted cell-killing curve with a large enough effect; inconclusive = small, poorly fitted or top-dose-only effect, or effect the other way; inactive = no such curve, though single readings can be large or run the other way.
Hi! Could you answer with just one of these? active, inactive

Status in this test for COc1ccc2c(c1)c(C1=C(c3c[nH]c4ccccc34)C(=O)NC1=O)cn2CCCN(C)C ? active

Tell me the recorded outcome of this test for OCCn1cc(-c2ccc3c(c2)CCC3=NO)c(-c2ccncc2)n1 . active

What did this assay record as the result for CCNC(=O)Nc1ccc(Oc2ncnc(N)c2C=NOC)cc1Cl ? active

For CN(C)CC[C@H](CSc1ccccc1)Nc1ccc(S(=O)(=O)NC(=O)c2ccc(N3CCN(Cc4ccccc4-c4ccc(Cl)cc4)CC3)cc2)cc1[N+](=O)[O-] , what call appears in the results of this test? active

Status in this test for CCC=CC[C@H]1C(=O)CC[C@@H]1CC(=O)OC ? inactive

Outcome? Nc1ncnc2c1ncn2[C@@H]1O[C@H](CO)[C@@H](O)[C@@H]1O active

In this assay, the call recorded for CSc1cccc(Nc2ncc3cc(-c4c(Cl)cccc4Cl)c(=O)n(C)c3n2)c1 was what? active

Record lookup: outcome of this test for N#Cc1ccc(Oc2ccc3c(c2)COB3O)cc1 ? active

Write down the call the test reported for this compound. Item: Clc1ccc(COC(Cn2ccnc2)c2ccc(Cl)cc2Cl)c(Cl)c1 (stereo not given) active

What classification did CCC(=O)OCC(=O)[C@@]1(OC(=O)CC)[C@@H](C)C[C@@H]2[C@H]3CCC4=CC(=O)C=C[C@]4(C)[C@@]3(F)[C@@H](O)C[C@@]21C end up with in this test? active

---

# RUN DESCRIPTION: qHTS profiling of the MIPE4 collection as inhibitors of Plasmodium falciparum (DD2) proliferation (Rep 2) (AID 743346)
# STUDY CONDITIONS: P. falciparum Dd2 in erythrocytes, SYBR Green DNA, 72 h; at 28.5 µM (top of the series) unless noted
# Experimental: Plasmodium falciparum is a virulent malarial parasite that kills 1-2 million people worldwide each year. […] Because mature erythrocytes lack DNA, only Plasmodium-derived DNA is detected. The SYBR Green viability assay was adapted from a method described previously (Plouffe et al., 2008). […] The following morning, fluorescence intensity at 485(14) nm excitation and 535(25) nm emission wavelengths was measured on an EnVision (Perkin Elmer) plate reader. […]
parasite growth, % of control (lower = inhibition) under 50% gets y, anything at or over 50% gets n.

Quick check: parasite growth, % of control (lower = inhibition) of c1ccc(-c2oc3ncnc(NC[C@@H]4CCCO4)c3c2-c2ccccc2)cc1 under 50%? y

I wonder whether CNc1nc(-c2ccc3c(N)n[nH]c3c2)cc(N2C[C@@H](C(=O)NC3CCCCC3)CC[C@@H]2C)n1 has parasite growth, % of control (lower = inhibition) below 50%. Can you tell? y

In the record for c1cc(OCCN2CCCCC2)cc(-c2n[nH]c3ccc(-c4ncn[nH]4)cc23)c1 , is parasite growth, % of control (lower = inhibition) less than 50%? y

hey, is parasite growth, % of control (lower = inhibition) for O=C(NCCCCN1CCOCC1)c1cc2ccccc2o1 lower than 50% or not? y

Given the entry CC[C@@H]([C@H](C)O)n1ncn(-c2ccc(N3CCN(c4ccc(OCC5CO[C@@](Cn6cncn6)(c6ccc(F)cc6F)C5)cc4)CC3)cc2)c1=O (some centres undefined) , would its reported parasite growth, % of control (lower = inhibition) be below 50%? y

Does the reported parasite growth, % of control (lower = inhibition) of the following compound sit strictly below 50%? CC(O)=C(C#N)C(=O)Nc1ccc(C(F)(F)F)cc1 n

Strictly below 50%: is that where parasite growth, % of control (lower = inhibition) of Cc1nn(Cc2ccccc2Cl)c(C)c1CN(C)CC(O)COc1ccc(Cl)cc1 (centres undefined) sits? y

Criterion: parasite growth, % of control (lower = inhibition) strictly below 50%. Is it met by COc1cc2c(cc1OC)[C@@H]1Cc3ccc(OC)c(OC)c3CN1CC2 ? y

Does this compound meet the criterion parasite growth, % of control (lower = inhibition) < 50%? O=[N+]([O-])c1ccc(Nc2ccccc2-c2ccccc2)c2nonc12 y

Please check: parasite growth, % of control (lower = inhibition) for CN(C)CC[C@H](CSc1ccccc1)Nc1ccc(S(=O)(=O)NC(=O)c2ccc(N3CCN(Cc4ccccc4-c4ccc(Cl)cc4)CC3)cc2)cc1[N+](=O)[O-] , strictly under 50% or not? y

Is parasite growth, % of control (lower = inhibition) strictly under 50% for the entry O=c1[nH]nc(OCCCc2ccc(Cl)cc2)c(NCc2cccnc2)c1Br ? y

Strictly below 50%: is that where parasite growth, % of control (lower = inhibition) of COc1cc(Cl)cn2c(-c3cccc(NC4CNC4)n3)cnc12 sits? y

Consider CCOC(=O)[C@H]1O[C@H]1C(=O)N[C@@H](CC(C)C)C(=O)NCCC(C)C . Does its parasite growth, % of control (lower = inhibition) lie strictly below 50%? y

parasite growth, % of control (lower = inhibition) under 50%? Item: O=C1CN2Cc3c(ccc(Cl)c3Cl)N=C2N1 n

A record lists OCCn1cc(-c2ccc3c(c2)CCC3=NO)c(-c2ccncc2)n1 . Is its parasite growth, % of control (lower = inhibition) below 50%? n

---

# RUN DESCRIPTION: qHTS of pediatric cancer cell lines to identify multiple opportunities for drug repurposing: Primary screen for A673 cells (AID 1347092); further: potency means the concentration at half of the fitted maximal effect; nearly all actives have a fitted effect of over 45% in size
# STUDY CONDITIONS: A673 Ewing sarcoma viability, CellTiter-Glo ATP luminescence, 48 h; series mostly up to 46 µM
Records with an inconclusive call do not appear. Calls of active or inactive are those of the source. Calls come from the whole dose curve; as a rule, active = well fitted cell-killing curve with a large enough effect; inconclusive = small, poorly fitted or top-dose-only effect; inactive = no such curve, though single readings can be large or run the other way.
MEASUREMENT NAME: Potency

Given CC(=O)O[C@]1(C(C)=O)CC[C@H]2[C@@H]3C=C(Cl)C4=CC(=O)[C@@H]5C[C@H]5[C@]4(C)[C@@H]3CC[C@@]21C , state its recorded Potency. 469 nM (active)

Recorded Potency for CCNC(=O)c1noc(-c2cc(C(C)C)c(O)cc2O)c1-c1ccc(CN2CCOCC2)cc1 , please? 148 nM (active)

Looking for the measured Potency of COC(=O)Nc1ccc(-c2nc(N3CCOCC3)c3cnn(C4CCN(C(=O)OC)CC4)c3n2)cc1 , can you help? 590 nM (active)

Recorded Potency of CON(C)C(=O)N1N=C(c2cc(F)ccc2F)S[C@]1(CCCN)c1ccccc1 , please. 1 nM (active)

Could you tell me which Potency is on file for CC[C@H](NC(=O)[C@H](C)NC)C(=O)N1C[C@@H](O)C[C@H]1Cc1c(-c2[nH]c3cc(F)ccc3c2C[C@H]2C[C@H](O)CN2C(=O)[C@H](CC)NC(=O)[C@H](C)NC)[nH]c2cc(F)ccc12 ? 11.8 nM (active)

What does the data say about its Potency? Entry: C[C@@H]1O[C@@H](O[C@H]2CC[C@@]3(C)[C@H](CC[C@@H]4[C@H]3C[C@@H](O)[C@]3(C)[C@@H](C5=CC(=O)OC5)CC[C@]43O)C2)C[C@H](O)[C@@H]1O[C@H]1C[C@H](O)[C@H](O[C@H]2C[C@H](O)[C@@H](O)[C@@H](C)O2)[C@H](C)O1 (stereo in doubt) 171 nM (active)

Data credit: PubChem BioAssay (NCATS)
